These data points were gathered from patent US10125134B2.

# TESTED ON: KRas G12C (Homo sapiens, UniProt P01116, C118S/C51S/C80L/G12C)
# ASSAY COMMENT: KRas G12C Modification Assay (LCMS detection of covalent adduct)
# Assay type: binding
# RUN CONDITIONS: normalized percent of control; tested at 5 μM concentration for 3 hours
Structures can show the parent of a compound that is named as a salt.
READOUT KIND: POC

INSERT INTO assay_data (molecule, result) VALUES
  ('C=CC(=O)N1CCN(c2nc(OCC3CCN(C4CC4)C3)nc3c2CCN(c2cc(O)cc4ccccc24)C3)CC1 (stereo not shown) [Example 190]', 'C (“C”>50% POC)'),
  ('C=CC(=O)N1CCN(c2nc(OCC(CO)N(C)C)nc3c2CCN(c2cc(O)cc4ccccc24)C3)CC1 (stereo not shown) [Example 55]', 'C (“C”>50% POC)'),
  ('C=CC(=O)N1CCN(c2nc(OC[C@@H]3CCCN3C)nc3c2CCN(c2c(C)c(C)cc4[nH]ccc24)C3)CC1 [Example 454]', 'C (“C”>50% POC)'),
  ('C=CC(=O)N1CCN(c2nc(OC[C@@H]3CCC(C)(C)N3C)nc3c2CCN(c2cccc4ccccc24)C3)CC1CC#N (stereo partly shown) [Example 301]', 'C (“C”>50% POC)'),
  ('C=CC(=O)N1CCN(c2nc(-c3cccc(CN4CCOCC4)c3)nc3c2CCN(c2cc(O)cc4ccccc24)C3)CC1 [Example 186]', 'B (“B”>25% POC−≤50% POC)'),
  ('CC#CC(=O)N1CCN(c2nc(OC[C@@H]3CCCN3C)nc3c2CCN(c2cccc4cccc(Cl)c24)C3)C[C@@H]1CC#N [Example 391]', 'C (“C”>50% POC)'),
  ('C=CC(=O)N1CCN(c2nc(OCCN(C)C)nc3c2CCN(c2cc(O)cc4ccccc24)C3)CC1 [Example 9]', 'C (“C”>50% POC)'),
  ('C=CC(=O)N1CCN(c2nc(OCCCCN3CCOCC3)nc3c2CCN(c2cc(O)cc4ccccc24)C3)CC1 [Example 35, trifluoroacetate]', 'C (“C”>50% POC)');

Query: Please indicate POC recorded for C=CC(=O)N1CCN(c2nc(OC[C@H]3CCC(C)(C)N3)nc3c2CCN(c2cc(O)cc4ccccc24)C3)CC1 [Example 174]
Result: C (“C”>50% POC)

Query: Please indicate POC recorded for C=CC(=O)N1CCN(c2nc(O[C@H](C)CN(C)C)nc3c2CCN(c2cc(O)cc(Cl)c2C(C)C)C3)CC1 [Example 76]
Result: C (“C”>50% POC)

Query: Please indicate POC recorded for Cc1cccc2cccc(N3CCc4c(nc(OC[C@@H]5CCCN5C)nc4N4CCN(C(=O)/C=C/CN5CCOCC5)[C@@H](CC#N)C4)C3)c12 [Example 457]
Result: C (“C”>50% POC)

Query: Please indicate POC recorded for C=CC(=O)N1CCN(c2nc(OCCCCN(C)C)nc3c2CCN(c2cc(O)cc4ccccc24)C3)CC1 [Example 40]
Result: C (“C”>50% POC)

Query: Please indicate POC recorded for C=CC(=O)N1CCN(c2nc(OCCCN3C[C@@H]4C[C@H]3CO4)nc3c2CCN(c2cc(O)cc4ccccc24)C3)CC1CC#N (stereo partly shown) [Example 153]
Result: C (“C”>50% POC)

Query: Please indicate POC recorded for C=CC(=O)N1CCN(c2nc(OC[C@@H]3CCCN3C)nc3c2CCN(c2ncccc2C(F)(F)F)C3)CC1CC#N (stereo partly shown) [Example 373]
Result: C (“C”>50% POC)

Query: Please indicate POC recorded for C=CC(=O)N1CCN(c2ncnc3c2CCN(c2cc(O)ccc2F)C3)CC1 [Example 5]
Result: A (“A”≤25% POC)

* * *

# TESTED ON: KRas G12C (Homo sapiens, UniProt P01116, C118S/C51S/C80L/G12C)
# ASSAY COMMENT: KRas G12C Modification Assay (LCMS detection of covalent adduct)
# Format: binding
# RUN CONDITIONS: normalized percent of control; tested at 5 μM concentration for 3 hours
READOUT KIND: POC

Past entries and their recorded results:
INSERT INTO assay_data (compound, readout_kind, result) VALUES
  ('C=CC(=O)N1CCN(c2nc(OC[C@@H]3CCCN3C)nc3c2CCN(c2cccc4c(F)cccc24)C3)CC1CC#N (stereo partly shown) [Example 287]', 'POC', 'C (“C”>50% POC)'),
  ('C=CC(=O)N1CCN(c2nc(OC[C@H]3COCCN3C)nc3c2CCN(c2cccc4ccccc24)C3)CC1CC#N (stereo partly shown) [Example 444]', 'POC', 'C (“C”>50% POC)'),
  ('C=CC(=O)N1CCN(c2nc(OC[C@@H]3CCCN3C)nc3c2CCN(c2c(Cl)ccc4[nH]ncc24)C3)CC1', 'POC', 'C (“C”>50% POC)'),
  ('C=CC(=O)N1CCN(c2nc(OC[C@@H]3CCCN3C)nc3c2CCN(c2cccc(Cl)c2CC)C3)C[C@@H]1CC#N', 'POC', 'C (“C”>50% POC)'),
  ('C=CC(=O)N1CCN(c2nc(OC3CCN(C)CC3)nc3c2CCN(c2cc(O)cc4ccccc24)C3)CC1', 'POC', 'C (“C”>50% POC)'),
  ('C=CC(=O)N1CCN(c2nc(OC3CCN(C)C3)nc3c2CCN(c2cc(O)cc4ccccc24)C3)CC1 (stereo not shown)', 'POC', 'C (“C”>50% POC)');

Query: Please indicate POC recorded for C=CC(=O)N1CCN(c2nc(OC(C)CN(C)C)nc3c2CCN(c2cccc4ccccc24)C3)CC1 (stereo not shown)
Result: A (“A”≤25% POC)

Query: Please indicate POC recorded for `C=CC(=O)N1CCN(c2nc(OCCCN3CCOCC3)nc3c2CCN(c2cc(O)cc4ccccc24)C3=O)CC1`
Result: C (“C”>50% POC)

Query: Please indicate POC recorded for `C=CC(=O)N1CCN(c2nc(OC[C@@H]3CCCN3C)nc3c2CCN(c2cccc4ccc(F)cc24)C3)C[C@@H]1CC#N`
Result: C (“C”>50% POC)

Query: Please indicate POC recorded for C=CC(=O)N1CCN(c2nc(OC[C@@H]3CCCN3C)nc3c2CCN(c2cc(O)cc4ccccc24)C3)C(CO)C1 (stereo partly shown)
Result: C (“C”>50% POC)

Query: Please indicate POC recorded for `C=CC(=O)N1CCN(c2nc(OCCN3CCC(F)(F)CC3)nc3c2CCN(c2cccc4cccc(Cl)c24)C3)C[C@@H]1CC#N`
Result: C (“C”>50% POC)

Query: Please indicate POC recorded for C=CC(=O)N1CCN(c2nc(OC[C@@H]3CCCN3C)nc3c2CCN(c2cccc4c(F)cccc24)C3)CC1CC#N (stereo partly shown) [Example 254]
Result: C (“C”>50% POC)

* * *

Some compounds, each annotated with its measured IC50.
# Test system: NCI-H358 cells (express KRas G12C), Phospho-ERK
# ASSAY COMMENT: Cellular inhibition of KRas G12C: Phospho-ERK in NCI-H358 cells
# Type: cell-based
# RUN CONDITIONS: Homo sapiens, NCI-H358, 3 h, pERK(Thr202/Tyr204) normalized with GAPDH; NCI-H358 cells; 3 hours; read-out: IC50

Past entries and their recorded results:
INSERT INTO measurements (compound, tested_on, result) VALUES
  ('C=CC(=O)N1CCN(c2nc(OC[C@@H]3CCC(=O)N3)nc3c2CCN(c2cc(O)cc4ccccc24)C3)CC1 [Example 57]', 'NCI-H358 cells (express KRas G12C), Phospho-ERK', '> 1000 nM'),
  ('C=CC(=O)N1CCN(c2nc(OCCN(C)C)nc3c2CCN(c2cc(O)cc4ccccc24)C3)C[C@H]1C [Example 15]', 'NCI-H358 cells (express KRas G12C), Phospho-ERK', '> 1000 nM'),
  ('C=CC(=O)N1CCN(c2nc(O[C@H](C)CN3CC[C@H](O)C3)nc3c2CCN(c2cc(O)cc4ccccc24)C3)CC1 [Example 65]', 'NCI-H358 cells (express KRas G12C), Phospho-ERK', '> 1000 nM'),
  ('C=CC(=O)N1CCN(c2nc(OC[C@@H]3CCCN3C)nc3c2CCN(c2cccc4ncccc24)C3)CC1CC#N (stereo partly drawn) [Example 264]', 'NCI-H358 cells (express KRas G12C), Phospho-ERK', '> 1000 nM'),
  ('C=CC(=O)N1CCN(c2nc(OC[C@@H]3CC(F)(F)CN3C)nc3c2CCN(c2cccc4ccccc24)C3)C[C@@H]1CC#N [Example 445]', 'NCI-H358 cells (express KRas G12C), Phospho-ERK', '0.1 to 1000 nM');

Query: Retrieve IC50 on NCI-H358 cells (express KRas G12C), Phospho-ERK; query C=CC(=O)N1CCN(c2nc(OC[C@@H]3CCCN3C)nc3c2CCN(c2cccc4cccnc24)C3)CC1CC#N (stereo partly drawn) [Example 247]
Result: > 1000 nM

Query: Retrieve IC50 on NCI-H358 cells (express KRas G12C), Phospho-ERK; query C=CC(=O)N1CCN(c2nc(OC[C@H]3CCC(C)(C)N3)nc3c2CCN(c2cc(O)cc4ccccc24)C3)CC1 [Example 174]
Result: > 1000 nM

Query: Retrieve IC50 on NCI-H358 cells (express KRas G12C), Phospho-ERK; query C=CC(=O)N1CCN(c2nc(OC[C@@H]3C[C@@H](O)CN3C)nc3c2CCN(c2cccc(Cl)c2C(F)(F)F)C3)C[C@@H]1CC#N [Example 425]
Result: 0.1 to 1000 nM

Query: Retrieve IC50 on NCI-H358 cells (express KRas G12C), Phospho-ERK; query C/C=C/C(=O)N1CCN(c2nc(OC[C@@H]3CCCN3C)nc3c2CCN(c2cccc4cccc(C)c24)C3)C[C@@H]1CC#N [Example 372]
Result: 0.1 to 1000 nM

Query: Retrieve IC50 on NCI-H358 cells (express KRas G12C), Phospho-ERK; query C=CC(=O)N1CCN(c2nc(OC3CCN(C4CC4)CC3)nc3c2CCN(c2cc(O)cc4ccccc24)C3)CC1 [Example 100]
Result: > 1000 nM

Query: Retrieve IC50 on NCI-H358 cells (express KRas G12C), Phospho-ERK; query C=CC(=O)N1CCN(c2nc(OCCN(C)C)nc3c2CCN(c2cc(O)cc4ccccc24)C3)CC1CO (stereo not drawn) [Example 50]
Result: > 1000 nM

Query: Retrieve IC50 on NCI-H358 cells (express KRas G12C), Phospho-ERK; query C=CC(=O)N1CCN(c2nc(OC[C@@H]3CCN(C)C3)nc3c2CCN(c2cc(O)cc4ccccc24)C3)C[C@@H]1CC#N [Example 350]
Result: 0.1 to 1000 nM

Query: Retrieve IC50 on NCI-H358 cells (express KRas G12C), Phospho-ERK; query C=CC(=O)N1CCN(c2nc(O[C@H]3CCCN(C)C3)nc3c2CCN(c2cc(O)cc4ccccc24)C3)CC1 [Example 66]
Result: > 1000 nM

Query: Retrieve IC50 on NCI-H358 cells (express KRas G12C), Phospho-ERK; query C=CC(=O)N1CCN(c2nc(OC[C@H]3CN(C)CCN3)nc3c2CCN(c2cccc4ccccc24)C3)CC1CC#N (stereo partly drawn) [Example 224]
Result: 0.1 to 1000 nM

Query: Retrieve IC50 on NCI-H358 cells (express KRas G12C), Phospho-ERK; query C=CC(=O)N1CCN(c2nc(OCCN3CCC(OC)CC3)nc3c2CCN(c2cc(O)cc4ccccc24)C3)CC1 [Example 108]
Result: 0.1 to 1000 nM

Query: Retrieve IC50 on NCI-H358 cells (express KRas G12C), Phospho-ERK; query CN(C)C/C=C/C(=O)N1CCN(c2nc(OC[C@H]3CCCN3C)nc3c2CCN(c2cccc(Cl)c2C(F)(F)F)C3)C[C@@H]1CC#N [Example 422]
Result: 0.1 to 1000 nM

Query: Retrieve IC50 on NCI-H358 cells (express KRas G12C), Phospho-ERK; query CC#CC(=O)N1CCN(c2nc(OC[C@@H]3CCCN3C)nc3c2CCN(c2cccc4ccccc24)C3)CC1CC#N (stereo partly drawn) [Example 376, 2,2,2-trifluoroacetate]
Result: 0.1 to 1000 nM

Query: Retrieve IC50 on NCI-H358 cells (express KRas G12C), Phospho-ERK; query C=CC(=O)N1CCN(c2nc(OC[C@@H]3CCCN3C)nc3c2CCN(c2cccc(OC)c2F)C3)CC1CC#N (stereo partly drawn) [Example 307]
Result: > 1000 nM

Query: Retrieve IC50 on NCI-H358 cells (express KRas G12C), Phospho-ERK; query C=CC(=O)N1CCN(c2nc(OCCNC(C)=O)nc3c2CCN(c2cc(O)cc4ccccc24)C3)CC1 [Example 59]
Result: > 1000 nM

Query: Retrieve IC50 on NCI-H358 cells (express KRas G12C), Phospho-ERK; query C=CC(=O)N1CCN(c2nc(OC[C@@H]3CCCN3C)nc3c2CCN(c2cccc4cccc(F)c24)C3)C[C@@H]1CC#N [Example 338]
Result: 0.1 to 1000 nM
